# key: entry, value: IC50
Assay: Inhibition of Aspergillus niger amyloglucosidase
experimentalReadout: IC50

{"compound": "C[C@H]1C[C@@H](O)[C@@H]2[C@H](O)[C@H](O)[C@@H](CO)N21 (relative stereo)", "experimentalResult": "270 µM"}
{"compound": "C[C@@H]1[C@@H](O)[C@H](O)[C@@H]2[C@H](O)[C@H](O)[C@@H](CO)N21 (relative stereo)", "experimentalResult": "57 µM"}
{"compound": "CC(O)CC[C@@H]1CC[C@@H]2[C@@H](O)[C@H](O)[C@@H](CO)N12 (some centres not stated)", "experimentalResult": "180 µM"}
{"compound": "CC[C@@H]1N[C@H](CO)[C@@H](O)[C@H](O)[C@@H]1O", "experimentalResult": "94 µM"}
{"compound": "OC[C@@H]1C[C@@H](O)[C@@H]2[C@H](O)[C@H](O)[C@@H](CO)N12 (relative stereo)", "experimentalResult": "870 µM"}
{"compound": "C[C@H]1[C@H](O)[C@@H](O)[C@@H]2[C@@H](O)[C@H](O)[C@@H](CO)N21 (relative stereo)", "experimentalResult": "57 µM"}
{"compound": "OC[C@@H]1C[C@H](O)[C@@H]2[C@H](O)[C@H](O)[C@@H](CO)N12 (relative stereo)", "experimentalResult": "550 µM"}
